Origin of the recorded values: patent US8759520B2

# target-desc: Bcl-2 (Homo sapiens)
# test-protocol: Homogeneous HTS assay for inhibitors of the Bcl-2 : Bak (72-87) BH3 domain interaction, fluorescence polarisation (2D-FIDA)
# Format: binding
# assay-setup: fluorescence polarisation, fluorescent labelled Bak BH3 domain derived peptide; read-out: IC50 [μM] Bcl-2
measured-metric: IC50

N=c1n(CCCOc2ccc(F)cc2)c2ccccc2n1Cc1ccc(CN2CCN(c3cccc(Cl)c3)CC2)cc1: 11 to 100 µM
N=c1n(Cc2ccccc2)c2ccccc2n1CC1CCOCC1: > 100 µM
N=c1n(CCCOc2ccc(F)cc2)c2ccccc2n1Cc1cccc(N2CCN(Cc3ccccc3-c3ccccc3)CC2)c1: < 10 µM
N=c1n(Cc2ccccc2)c2ccccc2n1Cc1ccccn1: 11 to 100 µM
N=c1n(CCCOc2ccc(F)cc2)c2ccccc2n1Cc1ccc(Br)cc1: < 10 µM

Please provide the recorded IC50 for CCCCCCn1c(=N)n(CC(O)COc2ccccc2OC)c2ccccc21 (stereo not shown) , tested on Bcl-2 (Homo sapiens).
11 to 100 µM

Identify the measured IC50 of "CC1(C)CCC(c2ccc(Cl)cc2)=C(CN2CCN(c3cccc(Cn4c(=N)n(CCCOc5cccc(C(=O)O)c5)c5ccccc54)c3)CC2)C1" for Bcl-2 (Homo sapiens).
< 10 µM

----------
Let's look at some molecules and their measured IC50.
# target-desc: Bcl-2 (Homo sapiens)
# test-protocol: Homogeneous HTS assay for inhibitors of the Bcl-2 : Bak (72-87) BH3 domain interaction, fluorescence polarisation (2D-FIDA)
# Assay type: binding
# assay-setup: fluorescence polarisation, fluorescent labelled Bak BH3 domain derived peptide; read-out: IC50 [μM] Bcl-2

Example entries and their recorded answers appear below.
N=c1n(CCCOc2ccc(F)cc2)c2ccccc2n1Cc1cccc(C(=O)O)c1: 11 to 100 µM
COc1ccccc1OCCn1c(=N)n(Cc2ccccc2)c2ccccc21: 11 to 100 µM
N=c1n(CCCOc2ccc(F)cc2)c2ccccc2n1Cc1ccc(N2CCN(Cc3ccccc3-c3ccccc3)CC2)cc1: < 10 µM

So what's the measured IC50 for this one? "N=c1n(CCCOc2ccc(F)cc2)c2ccccc2n1Cc1cccc(Br)c1"
11 to 100 µM

Record request: IC50 value, item "N=c1n(CCCOc2ccc(F)cc2)c2ccccc2n1Cc1ccc(CN2CCN(Cc3ccccc3-c3ccccc3)CC2)cc1"
11 to 100 µM

Could you share which IC50 value was measured for N=c1n(Cc2ccc(Cl)cc2)c2ccccc2n1CC(O)COc1ccccc1 (centres unmarked) ?
11 to 100 µM

Item under review: "N=c1n(CCCOc2ccc(F)cc2)c2ccccc2n1Cc1ccc(CN2CCN(c3ccc(Cl)cc3)CC2)cc1" . Reported IC50?
11 to 100 µM

What does the data say about its IC50? Entry: "N=c1n(CCCOc2ccc(F)cc2)c2ccccc2n1Cc1cccc(N2CCN(Cc3ccccc3-c3ccc(Cl)cc3)CC2)c1"
< 10 µM

----------
# target-desc: Bcl-2 (Homo sapiens, UniProt P10415)
# Sequence (P10415 whole entry, species assumed, the tested form may be a part): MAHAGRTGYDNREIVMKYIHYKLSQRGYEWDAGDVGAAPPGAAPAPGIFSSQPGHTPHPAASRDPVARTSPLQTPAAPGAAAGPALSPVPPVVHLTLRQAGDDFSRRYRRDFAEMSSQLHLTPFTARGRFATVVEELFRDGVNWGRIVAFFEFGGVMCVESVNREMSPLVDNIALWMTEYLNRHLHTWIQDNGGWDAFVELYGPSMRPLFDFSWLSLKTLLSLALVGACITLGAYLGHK
# test-protocol: Homogeneous HTS assay for inhibitors of the Bcl-2 : Bak (72-87) BH3 domain interaction, fluorescence polarisation (2D-FIDA)
# Format: binding
# assay-setup: fluorescence polarisation, fluorescent labelled Bak BH3 domain derived peptide; read-out: IC50 [μM] Bcl-2
measured-metric: IC50

Example results:
N=c1n(CCCOc2ccc(F)cc2)c2ccccc2n1Cc1csc(N2CCN(Cc3ccccc3-c3ccc(Cl)cc3)CC2)n1 [Compound 36]: < 10 µM
CCOC(=O)Cn1c(=N)n(CCCOc2ccc(F)cc2)c2ccccc21 [Compound 8]: 11 to 100 µM
CCCCCn1c(=N)n(CC(O)COc2ccccc2OC)c2ccccc21 (centres unmarked) [Compound 98]: 11 to 100 µM
N=c1n(CCCOc2ccc(F)cc2)c2ccccc2n1Cc1ccccc1 [Compound 97]: 11 to 100 µM
N=c1n(Cc2ccccc2)c2ccccc2n1CC(O)c1ccco1 (centres unmarked) [Compound 91]: > 100 µM
N=c1n(CCCOc2ccc(F)cc2)c2ccccc2n1Cc1ccc(N2CCN(Cc3ccccc3-c3ccccc3)CC2)nc1 [Compound 56]: < 10 µM

So what does the record say about IC50 for N=c1n(CCCOc2ccc(F)cc2)c2ccccc2n1Cc1ccc(N2CCN(Cc3ccccc3Cl)CC2)nc1 [Compound 57] ?
11 to 100 µM

Query: IC50; subject: CCOC(=O)c1cccc(OCCCn2c(=N)n(Cc3ccccc3)c3ccccc32)c1 [Compound 71]
11 to 100 µM

Query (molecule): N=c1n(Cc2ccccc2)c2ccccc2n1CC(O)COc1ccc(Cl)cc1Cl (centres unmarked) [Compound 106] ; field requested: IC50
11 to 100 µM

Please look up its IC50: CCCCn1c(=N)n(CC(O)COc2ccccc2OC)c2ccccc21 (centres unmarked) [Compound 93]
> 100 µM

Recorded IC50 of Cn1c(=N)n(Cc2ccc(N3CCN(Cc4ccccc4-c4ccccc4)CC3)cc2)c2ccccc21 [Compound 17] , please.
11 to 100 µM

Recorded IC50 of COC(=O)c1cccc(Cn2c(=N)n(CCCOc3ccc(F)cc3)c3ccccc32)c1 [Compound 15] , please.
< 10 µM

So what does the record say about IC50 for N=c1n(Cc2ccc(Br)cc2)c2ccccc2n1CC(O)COc1ccc(F)cc1 (centres unmarked) [Compound 77] ?
< 10 µM

Returns the measured IC50 for the input molecule. Input: N=c1n(Cc2cccc(N3CCN(Cc4ccccc4-c4ccccc4)CC3)c2)c2ccccc2n1CC(O)COc1ccc(F)cc1 (centres unmarked) [Compound 82]
< 10 µM

Which measured IC50 value corresponds to N=c1n(CCCOc2ccc(F)cc2)c2cc(F)ccc2n1Cc1ccc(Br)cc1 [Compound 61] ?
11 to 100 µM

Please look up its IC50: N=c1n(CCCOc2ccc(Cl)cc2)c2ccccc2n1Cc1ccncc1 [Compound 9]
> 100 µM

Please report the recorded IC50 for N=c1n(Cc2ccccc2)c2ccccc2n1CC(O)COc1ccccc1 (centres unmarked) [Compound 78] .
11 to 100 µM

I am curious: what IC50 value has been reported for N=c1n(CCCOc2ccccc2)c2ccccc2n1Cc1ccc(N2CCN(Cc3ccccc3-c3ccc(Cl)cc3)CC2)cc1 [Compound 30] ?
< 10 µM

# input molecule: CCOC(=O)c1cccc(OCCCn2c(=N)n(Cc3ccc(Br)cc3)c3ccccc32)c1 [Compound 65] ; wanted: its IC50
11 to 100 µM

Any idea what its IC50 is? The molecule is N=c1n(CCCOc2ccc(F)cc2)c2ccccc2n1Cc1ccc(CNCC(=O)Nc2ccc(Cl)cc2)cc1 [Compound 45]
11 to 100 µM

Report IC50 for N=c1n(Cc2ccccc2)c2ccccc2n1CC(O)COc1ccc(Cl)cc1 (centres unmarked) [Compound 80] please.
11 to 100 µM

Form field: reported IC50 of N=c1n(CCCOc2ccc(F)cc2)c2ccccc2n1Cc1ccc(N2CCN(Cc3ccccc3)CC2)nc1 [Compound 53]
11 to 100 µM

Look up IC50 for this molecule: N=c1n(CCCOc2ccc(F)cc2)c2ccccc2n1Cc1ccc(CN2CCN(Cc3ccccc3)CC2)cc1 [Compound 46]
< 10 µM
